# System: NCI-H520
# measurement.description: Antiproliferative activity against human NCI-H520 cells assessed as inhibition of cell viability at 5 uM incubated for 3 to 6 days by CCK8 assay relative to control
# Type: functional
# measurement.context: time 3-6 day
Decision: inhibition at 5 µM compared against 80%; not below it gives met, below it gives not met.

| compound.structure.string | group |
| --- | --- |
| CC(C)(C)OC(=O)N1CC2(CC(NC3=C(Cl)C(=O)c4ncccc4C3=O)C2)C1 | met |
| O=C1C(N2C[C@H]2Cc2ccccc2)=C(Cl)C(=O)c2ncccc21 | met |
| CCn1cc(C(=O)NCCN2CCOCC2)c(=O)c2ccc(C)nc21 | not met |
| Cc1ccc(CCNC2=C(Cl)C(=O)c3ncccc3C2=O)cc1 | met |
| O=C1C(Cl)=C(NCCN2CCOCC2)C(=O)c2ncccc21 | not met |
| O=C1C(Cl)=C(NCCc2cccc(F)c2)C(=O)c2ncccc21 | not met |
| O=C1C(Cl)=C(Nc2ccc(CN3CCOCC3)cc2)C(=O)c2ncccc21 | met |
| O=C1C(NCCc2ccncc2)=C(Cl)C(=O)c2ncccc21 | met |
| Cc1nn(CCN2CCOCC2)c(=O)c2ccccc12 | not met |
| O=C1C(Cl)=C(Nc2ccc(Oc3ccccc3)cc2)C(=O)c2ncccc21 | met |
